Cited source: patent US20210380703A1

- measurementTarget: T1, human ACVR2A (human, UniProt P27037 20-135, limits assumed); further: test concentration or dose not given here
- T1 construct: also called activin receptor, type II A
- T1 sequence (P27037 20-135 limits assumed): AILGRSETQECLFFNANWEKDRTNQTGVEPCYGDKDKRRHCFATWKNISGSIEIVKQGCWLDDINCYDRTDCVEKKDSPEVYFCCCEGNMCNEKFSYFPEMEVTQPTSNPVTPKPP
- testDescription: ELISA
readoutLabel: optical density (OD)
State the answer as a number, implicitly in OD.

[[record]]
binder = "368_B03 (antibody, V domains shown, Group I) VH: EVQLLESGGGLVQPGGSLRLSCAASGFTFDDYGMNWVRQAPGKGLEWVSGINYNGGYTSYADSVKGRFTISRDNSKNTLYLQMNSLRAEDTAVYYCARAANWHDTALDYWGQGTLVTVSS VL: DIQMTQSPSSLSASVGDRVTITCRASQSILTYLNWYQQKPGKAPKLVIYAATSLASGVPSRFSGSGSGTDFTLTISSLQPEDFATYYCQHSYENPLTFGGGTKVEIK"
readoutlabel = "optical density"
recordedvalue = 2.04

[[record]]
binder = "373_D11 (antibody, V domains shown, Group II) VH: EVQLLESGGGLVQPGGSLRLSCAASGFTFSSYGMHWVRQAPGKGLEWVAGINYNGGYTSYADSVKGRFTISRDNSKNTLYLQMNSLRAEDTAVYYCARAATWHDTHLDYWGQGTLVTVSS VL: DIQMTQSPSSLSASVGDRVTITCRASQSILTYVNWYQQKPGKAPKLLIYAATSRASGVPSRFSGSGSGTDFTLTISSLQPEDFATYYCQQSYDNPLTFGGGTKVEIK"
readoutlabel = "optical density"
recordedvalue = 3.57


Consider the additional binder presented here.
Req: What value of optical density has been recorded for this entry: 365_B04 (antibody, V domains shown, Group I) VH: EVQLLESGGGLVQPGGSLRLSCAASGFTFSSYGMHWVRQAPGKGLEWVASINYNSGYTSYADSVKGRFTISRDNSKNTLYLQMNSLRAEDTAVYYCARAANWHDTALDYWGQGTLVTVSS VL: DIQMTQSPSSLSASVGDRVTITCRASQSILTYLNWYQQKPGKAPKLLIYAATSRHSGVPSRFSGSGSGTDFTLTISSLQPEDFATYYCQQSDESPLTFGGGTKVEIK
Resp: 1.99
